# reported melting point; entries follow
Counter-ions that a name gives are not always drawn.

{"compound": "CCc1nc2c(N)nc3ccccc3c2n1CCC/C=C/c1ccc(OC)cc1", "melting point": "179 to 180 °C"}
{"compound": "CCc1nc2c(N)nc3ccccc3c2n1CC#Cc1ccc(OC)cc1", "melting point": "179 to 181 °C"}
{"compound": "CCc1nc2c(N)nc3ccccc3c2n1CC#Cc1ccccc1C(F)(F)F", "melting point": "234 to 235 °C (dec.)"}
{"compound": "CCc1nc2c(N)nc3ccccc3c2n1CCC/C=C/c1cccnc1", "melting point": "188 to 190 °C"}

Lookup: Return reported melting point; argument: CCc1nc2c(N)nc3ccccc3c2n1CC#Cc1ccccc1 (as salt: hydroiodid)
Found: 200 to 212 °C (dec.)

Lookup: Now this one: CCc1nc2c(N)nc3ccccc3c2n1CCCC#Cc1cccc(C(F)(F)F)c1
Found: 178 to 181 °C

Lookup: Now this one: CCc1nc2c(N)nc3ccccc3c2n1CCCC#Cc1ccccc1
Found: 199 to 202 °C

Lookup: Now this one: CCc1nc2c(N)nc3ccccc3c2n1CCCC#Cc1cccnc1
Found: 188 to 192 °C

Lookup: Now this one: CCc1nc2c(N)nc3ccccc3c2n1CC#Cc1cccc([N+](=O)[O-])c1
Found: 224 to 243 °C
